Source of measurements: ChEMBL document CHEMBL1158761

Below, each entry is listed with its recorded IC50.
- Assay info: Cytotoxicity against human WI38 cells
- Type: cell-based
- Condition info: WI-38
Give the figure together with its unit, number first.

Previously resolved entries follow.
COc1cccc2c1C(=O)c1c(O)c3c(c(O)c1C2=O)C[C@@](O)(C(=O)CO)C[C@@H]3O[C@H]1C[C@H](N)[C@H](O)[C@H](C)O1 [DOXORUBICIN] :: 0.3 µM
C/C=C/C(=O)COC(=O)c1c(C)cc(O)cc1O [GLOBOSUMONE A] :: 13 µM

Kindly consider the entry below.
Q: What value of IC50 has been reported for the following molecule? Cc1cc(O)cc(O)c1C(=O)OCC(=O)C[C@H](C)O [GLOBOSUMONE B]
Ans: 14.2 µM

* * *

- Tested on: NCI-H460
- Assay info: Cytotoxicity against human NCI-H460 cells by MTT assay
- Format: functional, cell-based
Metric name: pIC50
Bear in mind: pIC50 is minus log10 of a mol/L concentration; give just that figure.

Some solved entries appear below for comparison.
COc1cccc2c1C(=O)c1c(O)c3c(c(O)c1C2=O)C[C@@](O)(C(=O)CO)C[C@@H]3O[C@H]1C[C@H](N)[C@H](O)[C@H](C)O1 :: 8.00
C/C=C/C(=O)COC(=O)c1c(C)cc(O)cc1O :: 5.19

For the next question, use this compound.
Q: Requested read-out pIC50, target or system NCI-H460, entry Cc1cc(O)cc(O)c1C(=O)OCC(=O)C[C@H](C)O
Ans: 4.61

* * *

- System: SF-268
- Assay info: Cytotoxicity against human SF268 cells
- Assay type: functional, cell-based
Examples of compounds with documented pIC50 follow.
Would you please state pIC50, meaning minus log10 of the concentration in mol/L, as a bare number?

Cc1cc(O)cc(O)c1C(=O)OCC(=O)C[C@H](C)O :: 4.54

With those in mind, consider the next compound.
Q: // returns reported pIC50 for input C/C=C/C(=O)COC(=O)c1c(C)cc(O)cc1O
Ans: 5.06
